Reference for the values: patent US11873291B2

For each entry below, report its pIC50 value.
# target-or-test-system: recombinant human cGAS (aa147-522) (Homo sapiens, UniProt Q8N884)
# Construct: recombinant human cGAS (aa147-522); His6-SUMO (cleaved yes); made in house; host or cells: E. coli BL21/pLys
# Sequence (Q8N884 147-522): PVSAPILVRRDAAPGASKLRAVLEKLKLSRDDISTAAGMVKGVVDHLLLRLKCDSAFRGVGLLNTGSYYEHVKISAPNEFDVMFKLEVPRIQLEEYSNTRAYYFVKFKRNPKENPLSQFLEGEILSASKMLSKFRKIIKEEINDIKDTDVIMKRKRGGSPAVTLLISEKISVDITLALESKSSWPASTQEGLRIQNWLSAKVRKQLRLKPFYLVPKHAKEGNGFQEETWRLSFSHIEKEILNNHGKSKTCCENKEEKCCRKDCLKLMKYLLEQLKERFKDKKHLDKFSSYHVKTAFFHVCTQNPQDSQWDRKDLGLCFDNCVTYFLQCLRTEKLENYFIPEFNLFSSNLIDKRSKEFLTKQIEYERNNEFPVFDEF
# assay-text: In vitro inhibition assay of cGAS activity (ATP consumption, KinaseGlo Max)
# Type: biochemical
# settings: Table 2, read-out: cGAS Inhibition Results IC50
pIC50: −log10 of the molar value.

Query: Form field: reported pIC50 of CN(C)S(=O)(=O)CCNc1cc(-n2ccnc2)c2ccc(Cl)c(Cl)c2n1 [I-202]
Reply: > 5.70

Query: Query (molecule): Clc1ccc2c(Cl)cc(-c3cn[nH]c3)nc2c1Cl [I-404] ; field requested: pIC50
Reply: < 4.52

Query: Consider the molecule Brc1ccc2c(-n3ccnc3)cc(-c3ccccc3)nc2c1 [I-424] and give its measured pIC50.
Reply: 4.52 to 5.70

Query: Which pIC50 is reported for this molecule? Oc1cc(-c2cc(-n3ccnc3)c3ccc(Cl)cc3n2)ccn1 [I-59]
Reply: < 4.52

Query: Request the reported pIC50 associated with O=C(O)C1CCN(c2cc(-n3ccnc3)c3ccc(Cl)cc3n2)C1 (centres unmarked) [I-445]
Reply: 4.52 to 5.70

* * *

Kindly supply the reported IC50 values for the records listed here.
# target-or-test-system: recombinant human cGAS (aa147-522) (Homo sapiens, UniProt Q8N884)
# Construct: recombinant human cGAS (aa147-522); His6-SUMO (cleaved yes); made in house; host or cells: E. coli BL21/pLys
# assay-text: In vitro inhibition assay of cGAS activity (ATP consumption, KinaseGlo Max)
# Format: biochemical
# settings: Table 2, read-out: cGAS Inhibition Results IC50

Query: Reported IC50, compound CC(C)[C@H](CS(=O)(=O)O)Nc1cc(-n2ccnc2)c2ccc(Cl)cc2n1 : ____
Reply: > 30 µM

Query: I have this compound here, O=C(O)c1ccc(-c2cc(-n3ccnc3)c3ccc(Cl)cc3n2)cc1 , and I need its recorded IC50.
Reply: 2 to 30 µM

Query: Consider the compound Brc1ccc2nccc(-n3ccnc3)c2c1 and give its measured IC50.
Reply: > 30 µM

Query: GET /values?readout=IC50&item= O=C(O)CC1CCCN(c2cc(-n3ccnc3)c3ccc(Cl)cc3n2)C1 (stereo not shown)
Reply: 2 to 30 µM

Query: Given O=C(CO)NC[C@@H]1CCCN1c1cc(-n2ccnc2)c2ccc(Cl)c(Cl)c2n1 , state its recorded IC50.
Reply: < 2 µM

Query: If you can, please state the reported IC50 value of O=S(=O)(O)CNc1cc(-n2ccnc2)c2ccc(Cl)c(Cl)c2n1 .
Reply: 2 to 30 µM

Query: Could you tell me which IC50 is on file for CC(=O)NCCN(C)c1cc(-n2ccnc2)c2ccc(Cl)cc2n1 ?
Reply: 2 to 30 µM

Query: Consider the compound Cc1cc(N2CCNC(=O)C2)c2ccc(Cl)c(Cl)c2n1 and give its measured IC50.
Reply: > 30 µM

Query: Report IC50 for COc1ccc(-c2cc(-c3cn[nH]c3)c3ccc(Cl)c(Cl)c3n2)cc1C(=O)O please.
Reply: < 2 µM

Query: Please report the recorded IC50 for Cc1cc(-n2ccnc2)c2ccc(Cl)c(Cl)c2n1 .
Reply: 2 to 30 µM

Query: What value of IC50 has been recorded for this entry: O=S(=O)(NC1CCCN(c2cc(-n3ccnc3)c3ccc(Cl)cc3n2)C1)c1ncc[nH]1 (stereo not shown)
Reply: < 2 µM

Query: // lookup IC50 for O=C1NC(=O)/C(=C\CCc2cc(-c3cn[nH]c3)c3ccc(Cl)c(Cl)c3n2)S1
Reply: 2 to 30 µM

Query: So what does the record say about IC50 for CNS(=O)(=O)CCN(C)c1cc(-n2ccnc2)c2ccc(Cl)c(Cl)c2n1 ?
Reply: < 2 µM

Query: IC50 for OCCNc1cc(-n2ccnc2)c2ccc(Cl)c(Cl)c2n1 ?
Reply: < 2 µM

Query: Give its IC50 value. Item: O=C(O)CCNC(=O)[C@@H]1CCCN1c1cc(-n2ccnc2)c2ccc(Cl)c(Cl)c2n1
Reply: < 2 µM

Query: // query IC50 value for entry NS(=O)(=O)CC1CCCCN1c1cc(-n2ccnc2)c2ccc(Cl)c(Cl)c2n1 (stereo not shown)
Reply: 2 to 30 µM

Query: Consider the compound CN(CCC(=O)NCC(=O)O)c1cc(-n2ccnc2)c2ccc(Cl)c(Cl)c2n1 and give its measured IC50.
Reply: < 2 µM

Query: Which IC50 reading was recorded for the compound Oc1ccc(-c2cc(-n3ccnc3)c3ccc(Cl)c(Cl)c3n2)cc1 ?
Reply: < 2 µM

Query: Any idea what IC50 was measured for O=C1CN(c2cc(-c3cn[nH]c3)nc3c(Cl)c(Cl)ccc23)CCN1 ?
Reply: > 30 µM

* * *

# target-or-test-system: recombinant human cGAS (aa147-522) (Homo sapiens, UniProt Q8N884)
# Construct: recombinant human cGAS (aa147-522); His6-SUMO (cleaved yes); made in house; host or cells: E. coli BL21/pLys
# assay-text: In vitro inhibition assay of cGAS activity (ATP consumption, KinaseGlo Max)
# Type: biochemical
# settings: Table 2, read-out: cGAS Inhibition Results IC50
readout-label: IC50

Query: Fill in: IC50 of CN(CCO[PH](=O)O)c1cc(-n2ccnc2)c2ccc(Cl)c(Cl)c2n1 is ___
Reply: < 2 µM

Query: I am curious: what IC50 value has been reported for CCN(CCN1CCOCC1)c1cc(-c2cn[nH]c2)c2ccc(Cl)c(Cl)c2n1 ?
Reply: 2 to 30 µM

Query: Which IC50 reading was recorded for the compound O=C(O)c1cc(-c2cc(-n3ccnc3)c3ccc(Cl)c(Cl)c3n2)ccc1O ?
Reply: < 2 µM

Query: Which IC50 value is on record for O=C(CO)Nc1cc(C(=O)O)cc(-c2cc(-n3ccnc3)c3ccc(Cl)cc3n2)c1 ?
Reply: < 2 µM

Query: What value of measured IC50 is listed for OC1(CNc2cc(-n3ccnc3)c3ccc(Cl)c(Cl)c3n2)CC1 ?
Reply: < 2 µM

Query: Fill blank: measured IC50 of the compound O=[PH](O)OCC1CCCN(c2cc(-c3cn[nH]c3)c3ccc(Cl)c(Cl)c3n2)C1 (stereo not shown) is ____.
Reply: < 2 µM

Query: Need IC50, item NC(=O)c1cccc(-c2cc(-n3ccnc3)c3ccc(Cl)cc3n2)c1
Reply: 2 to 30 µM

Query: Param item = NS(=O)(=O)CCNc1cc(-c2cn[nH]c2)c2ccc(Cl)c(F)c2n1 ; retrieve measured IC50.
Reply: < 2 µM

Query: What does the data say about its IC50? Entry: Cc1cc(N2CCCC(O)CC2)c2ccc(Cl)c(Cl)c2n1 (stereo not shown)
Reply: > 30 µM

Query: So what does the record say about IC50 for Oc1cc(OC(F)(F)F)cc(-c2cc(-n3ccnc3)c3ccc(Cl)c(Cl)c3n2)c1 ?
Reply: > 30 µM

Query: Form field: reported IC50 of CN(CCN1CCOCC1)c1cc(-c2cn[nH]c2)c2ccc(Cl)c(Cl)c2n1
Reply: 2 to 30 µM

Query: Name the reported IC50 value associated with the compound Brc1ccc2c(-n3ccnc3)cc(-c3cccs3)nc2c1
Reply: 2 to 30 µM

Query: # input compound: OC[C@H](Nc1cc(-n2ccnc2)c2ccc(Cl)c(Cl)c2n1)c1ccccc1 ; wanted: its IC50
Reply: 2 to 30 µM

Query: // IC50 lookup, key: O=C(O)COc1c(Br)ccc2c(-n3ccnc3)cc(-c3ccccc3)nc12
Reply: 2 to 30 µM

Query: Any idea what IC50 was measured for O=S(=O)(O)CCCNc1cc(-n2ccnc2)c2ccc(Cl)c(Cl)c2n1 ?
Reply: < 2 µM

Query: Item Cn1cc(-c2cc(NCC(=O)O)c3ccc(Cl)c(Cl)c3n2)cn1 has what recorded IC50?
Reply: > 30 µM

Query: Tell me the measured IC50 of Cc1ncn(-c2cc(-c3ccccc3)nc3cc(Cl)ccc23)c1C , please.
Reply: > 30 µM

Query: Request the reported IC50 associated with Cc1cc(NCCC(=O)O)c2ccc(Cl)c(Cl)c2n1
Reply: > 30 µM

Query: Consider the compound O=C(O)[C@H](CO)Nc1cc(-n2ccnc2)c2ccc(Cl)c(Cl)c2n1 and give its measured IC50.
Reply: < 2 µM

* * *

Kindly supply the reported IC50 values for the records listed here.
# System: cGAS activity in Reporter THP1 cell line
# assay-text: Cellular assay to measure cGAS activity: ISRE-Gaussia luciferase reporter THP1 cells transfected with ISD
# Assay type: cell-based
# settings: Homo sapiens, THP-1, Table 4, Gaussia luciferase

Query: Look at this molecule and give its reported IC50. CCOC(=O)[C@@H]1CCCN1c1cc(-n2ccnc2)c2ccc(Cl)c(Cl)c2n1
Reply: 2000 to 10000 nM

Query: Could you tell me which IC50 is on file for O=C(O)[C@@H]1[C@H]2CC[C@H](C2)N1c1cc(-n2ccnc2)c2ccc(Cl)c(Cl)c2n1 ?
Reply: > 10000 nM

Query: Bench note: what IC50 did O=C(O)COC[C@H]1CCCN(c2cc(-n3ccnc3)c3ccc(Cl)c(Cl)c3n2)C1 show?
Reply: < 2000 nM

Query: Looking for the measured IC50 of COC(=O)[C@@H]1CC2(CC2)CN1c1cc(-n2ccnc2)c2ccc(Cl)c(Cl)c2n1 , can you help?
Reply: < 2000 nM
